- PROTOCOL_TEXT: Identifying Small Molecule Inhibitors of Pancreatic Cancer Stem Cells (A278, Adherent) (AID 1259361);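 note: viability read after 48 h compound exposure; nearly all actives have a fitted effect of over 35% in size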
- CONDITION_PARAMETERS: series mostly up to 46.1 µM
Inconclusive results are not listed. Calls of active or inactive are those of the source. Calls come from the whole dose curve; as a rule, active = well fitted cell-killing curve with a large enough effect; inconclusive = small, poorly fitted or top-dose-only effect; inactive = flat fitted curve, though single readings scatter.
Response enum: 1 (yes) = active, 0 (no) = inactive

Please state the recorded outcome for this molecule: `O=c1cc(N2CCOCC2)oc2c(-c3cccc4c3sc3ccccc34)cccc12`
1 (yes)

Please state the recorded outcome for this molecule: `OC[C@H]1O[C@@H](n2cnc3c2NC=NC[C@@H]3O)C[C@H]1O`
1 (yes)

Please state the recorded outcome for this molecule: `CC(=O)N(C)C1(c2ccccc2)CCN(CCC[C@]2(c3ccc(Cl)c(Cl)c3)CCCN(C(=O)c3ccccc3)C2)CC1`
1 (yes)

Please state the recorded outcome for this molecule: `CC(C)[C@H](CO)Nc1nc(Nc2ccc(C(=O)O)c(Cl)c2)c2ncn(C(C)C)c2n1`
0 (no)

Please state the recorded outcome for this molecule: `CN(C)Cc1ccc(-c2nc3cccc4c3n2CCNC4=O)cc1`
1 (yes)

Please state the recorded outcome for this molecule: `Cc1nc(N)sc1-c1ccnc(Nc2ccc(N3CCOCC3)cc2)n1`
1 (yes)

###

- PROTOCOL_TEXT: qHTS of pediatric cancer cell lines to identify multiple opportunities for drug repurposing: Primary screen for A673 cells (AID 1347092); note: potency is the fitted concentration of half-maximal effect; nearly all actives have a fitted effect of over 45% in size
- CONDITION_PARAMETERS: A673 Ewing sarcoma viability, CellTiter-Glo ATP luminescence, 48 h; series mostly up to 46 µM
Inconclusive results are not listed. Activity calls are given as the source filed them. Calls come from the whole dose curve; as a rule, active = well fitted cell-killing curve with a large enough effect; inconclusive = small, poorly fitted or top-dose-only effect; inactive = no such curve, though single readings can be large or run the other way.
ENDPOINT: Potency

Per the records, this compound ( `CO[C@@H](C(=O)N1Cc2[nH]nc(NC(=O)c3ccc(N4CCN(C)CC4)cc3)c2C1)c1ccccc1` ) has Potency equal to 5.9 µM (active)

Per the records, this compound ( CC(=O)OC1C(C)OC(Oc2c(-c3ccc(O)cc3)oc3cc(O)cc(O)c3c2=O)C(O)C1OC(C)=O (stereo not given) ) has Potency equal to 11.8 µM (active)

Per the records, this compound ( O=C(O)CCC1CCC(c2cc(F)ccc2F)(S(=O)(=O)c2ccc(Cl)cc2)CC1 (stereo not given) ) has Potency equal to 1.48 µM (active)

Per the records, this compound ( CC(=O)Oc1cc2c(s1)CCN(C(C(=O)C1CC1)c1ccccc1F)C2 (stereo not given) ) has Potency equal to 1.48 µM (active)

Per the records, this compound ( `Cc1[nH]c(C=C2C(=O)Nc3ccc(S(=O)(=O)Cc4c(Cl)cccc4Cl)cc32)c(C)c1C(=O)N1CCC[C@H]1CN1CCCC1` ) has Potency equal to 23.5 µM (active)

###

- PROTOCOL_TEXT: Validation screen for small molecules that induce DNA re-replication in MCF 10A normal breast cells (AID 463097); note: nearly all actives have a fitted effect of over 60% in size
- CONDITION_PARAMETERS: MCF 10A cells, DNA re-replication phenotype imaging; series mostly up to 46.1 µM
- From the text: NIH Molecular Libraries Probe Production Network [MLPCN] NIH Chemical Genomics Center [NCGC] Assay Provider: Melvin DePamphilis, NICHD, NIH Eukaryotic cells normally restrict genome duplication to once per cell division. […] To identify compounds that induce re-replication in normal cells, an image-based assay was used to measure DNA content of nuclei, as detected by the fluorescent DNA binding dye, Hoechst. […]
Records with an inconclusive call do not appear. The source made the active and inactive calls. Calls follow the shape of the dose curve; as a rule, active = well fitted activation curve with a large enough effect; inconclusive = small, poorly fitted or top-dose-only effect; inactive = flat fitted curve, though single readings scatter.
Response enum: y (active), n (inactive)

Please state the recorded outcome for this compound: Cc1cccc(C)c1OCC(C)N (stereo not given)
n

Please state the recorded outcome for this compound: `O=C1NC(=O)C(c2ccccc2)(c2ccccc2)N1`
n

Please state the recorded outcome for this compound: `COC(=O)[C@@H]1[C@H]2C[C@H]3c4[nH]c5ccccc5c4CCN3C[C@@H]2CC[C@@H]1O`
n

Please state the recorded outcome for this compound: `CCN1CCC[C@H]1CNC(=O)c1cc(S(N)(=O)=O)ccc1OC`
n

Please state the recorded outcome for this compound: `NCCS`
n

Please state the recorded outcome for this compound: `CCCCC1C(=O)N(c2ccccc2)N(c2ccccc2)C1=O`
n

Please state the recorded outcome for this compound: `CC(=O)c1ccc(S(=O)(=O)NC(=O)NC2CCCCC2)cc1`
n

Please state the recorded outcome for this compound: `CCN(CC)CCOC(=O)c1ccc(N)cc1`
n

Please state the recorded outcome for this compound: `O=C1NCC2(CCN(CCc3ccccc3)CC2)O1`
n

Please state the recorded outcome for this compound: `CC(=O)N[C@@H](CS)C(=O)O`
n

Please state the recorded outcome for this compound: `CCN(CC)C(=O)c1ccc(O)c(OC)c1`
n

Please state the recorded outcome for this compound: `CC/C(=C(\c1ccccc1)c1ccc(OCCN(C)C)cc1)c1ccccc1`
y

Please state the recorded outcome for this compound: `C[N+](C)(C)CCCCCC[N+](C)(C)C`
n

Please state the recorded outcome for this compound: `NC(N)=Nc1nc(CSCC/C(N)=N/S(N)(=O)=O)cs1`
n

Please state the recorded outcome for this compound: `O=C(O)CCc1nc(-c2ccccc2)c(-c2ccccc2)o1`
n

Please state the recorded outcome for this compound: `COc1ccccc1N1CCN(CCCNc2cc(=O)n(C)c(=O)n2C)CC1`
n

Please state the recorded outcome for this compound: CC(C)NCC(O)COc1cccc2[nH]ccc12 (stereo not given)
n

Please state the recorded outcome for this compound: `CC(=O)CCCCn1c(=O)c2c(ncn2C)n(C)c1=O`
n

Please state the recorded outcome for this compound: `CCCNC(=O)NS(=O)(=O)c1ccc(Cl)cc1`
n

Please state the recorded outcome for this compound: CN(C)CCC(c1ccccc1)c1ccccn1 (stereo not given)
n
